study_target: recEmTDH (Echinococcus multilocularis)
Construct: gene EmuJ_000511900; E. coli BL21; 979 bp insert from metacestode vesicle cDNA
Sequence (A0A068Y017 31-362): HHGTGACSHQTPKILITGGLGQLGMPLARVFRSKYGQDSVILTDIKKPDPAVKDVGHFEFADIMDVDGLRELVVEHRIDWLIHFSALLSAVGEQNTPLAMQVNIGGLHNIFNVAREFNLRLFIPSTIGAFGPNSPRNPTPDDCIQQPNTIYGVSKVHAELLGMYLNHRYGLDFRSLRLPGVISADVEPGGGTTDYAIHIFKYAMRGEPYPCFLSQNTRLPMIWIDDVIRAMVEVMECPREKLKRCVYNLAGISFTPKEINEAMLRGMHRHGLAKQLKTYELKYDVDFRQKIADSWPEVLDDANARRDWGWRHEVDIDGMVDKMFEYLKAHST
method: NADH formation, absorbance at […] nm, relative to DMSO control
Assay type: biochemical
condition_label: read-out: residual activity at 20 μM
property_label: remaining activity at 20 µM (%)
# unit: % | format: bare number

Check out these entries, answers already filled in.
C[n+]1cc2c3c(ccc2c2ccc4cc5c(cc4c21)OCO5)OCO3 [sanguinarine]
64
O=c1c(O)c(-c2cc(O)c(O)c(O)c2)oc2cc(O)cc(O)c12 [myricetin]
74.8
O=c1c(O)c(-c2ccc(O)c(O)c2)oc2cc(O)cc(O)c12 [quercetin]
85.5

Lab note: need remaining activity at 20 µM for COc1ccc(NC(=O)c2ccc3c(=O)n(-c4cc(C(F)(F)F)ccc4Cl)c(=S)[nH]c3c2)cc1OC [QC2] on recEmTDH (Echinococcus multilocularis), anyone have it?
81.3

Form: Entry = CCN(CC)C(=S)SSC(=S)N(CC)CC [disulfiram] | System = recEmTDH (Echinococcus multilocularis) | remaining activity at 20 µM = ____
41.2
